Assay: binders from COS7 lysate, DM2A8 probe, primary screen, torsin A project, cell lysate, small-molecule microarray, fluorescence 635/667 (AID 1065)
Details: higher = more signal, COS7 lysate expressing mutant human TOR1A
// map composite z-score to label using low (below 0.1), moderate (0.1 to below 0.9), high (0.9 or more)

**Q:** Which composite z-score band matches Cc1cc(C)c(C(O)C2C=CC3C(=O)N(c4ccccc4)C(=O)C3N2Nc2ccccc2F)c(C)c1 (stereo not drawn) ?
**A:** low

**Q:** Which class does CCCCCCCCCC(O)C1C=CC2C(=O)N(c3ccccc3)C(=O)C2N1Nc1cc(OC)c(OC)c(OC)c1 (stereo not drawn) fall in?
**A:** low

**Q:** State the band of COC(=O)C1=CC(CCCO)=CC(c2cccs2)N(C)C=C1C(=O)OC (stereo not drawn)
**A:** low

**Q:** # bin label for [N-]=[N+]=NCc1ccccc1[C@@H]1OC(c2ccc(OCCCO)cc2)=N[C@]1(CCS(=O)(=O)c1ccccc1)C(=O)O
**A:** low

**Q:** Please let me know in which category the item C=C[C@H](C)[C@H](OC(=O)Nc1ccc(SC)cc1)c1ccc(OCCO)cc1 belongs.
**A:** high

**Q:** Consider CCCC[C@@H]1C[C@H]1[C@@H](NC(=O)c1cccs1)c1ccccc1C(F)(F)F . To which composite z-score class does it belong?
**A:** moderate

**Q:** # bin lookup: classify [N-]=[N+]=Nc1ccccc1[C@@H]1OC(c2ccc(OCCCO)cc2)=N[C@]1(Cc1ccccc1)C(=O)N1CCCCC1 by its composite z-score
**A:** high

**Q:** Tag the class for CC(C)NC(=O)[C@@]1(c2ccc([N+](=O)[O-])cc2)CC(=O)N(C2CCCCC2)[C@@H]1c1ccc(CO)cc1
**A:** high

**Q:** Each molecule maps to one class by composite z-score. Which class for COc1ccc(CCNC(=O)[C@@]2(c3ccc([N+](=O)[O-])cc3)CC(=O)N(C3CCCCC3)[C@@H]2c2ccc(CO)cc2)cc1 ?
**A:** moderate

**Q:** # bin lookup: classify COCCOC(=O)N1C(=O)[C@@]2(c3cc(C#CC4=CCCCC4)ccc31)[C@H](c1ccccc1OCCO)N1[C@H](c3ccccc3)[C@H](c3ccccc3)OC(=O)[C@H]1[C@@H]2C(=O)NC[C@H](O)c1ccccc1 by its composite z-score
**A:** moderate

**Q:** Input CC(=O)N1CC2(CC2)CC1c1ccccc1 (stereo not drawn) ; output its category
**A:** high

**Q:** State the band of COC(=O)C/C=C/C[C@]1(O)C(=O)N(C)c2ccccc21
**A:** moderate

Source of measurements: PubChem BioAssay
